# Tested on: HCT-15 colon
# ASSAY_PROTOCOL: NCI-60 one-dose screen, 48 h (100 = growth as untreated, 0 = no growth, -100 = all killed)
# APPLIED_CONDITIONS: 10 µM unless noted
The panel holds about 83,000 compounds, 20% with a hit somewhere; the sample as a whole holds those more often.
ASSAY_READOUT: growth (%)
# number only, unit % dropped from output

See these solved cases before continuing.
Dear colleague, I am looking for the recorded growth of the following compound: CS(=O)(=O)c1ccc(/C(=N/NC(N)=S)c2ccc(F)cc2)cc1
98.4

Please report the recorded growth for O=C1/C(=C/c2ccc(-c3ccc(Cl)cc3)o2)SC(=S)N1CCc1ccc(O)cc1 .
67.5

Please look up its growth: CCOC(=O)CC1CSC(N/N=C/c2ccc(O)cc2)=N1 (stereo not given)
100

What value of growth has been reported for the following compound? O=[N+]([O-])c1ccc(N/N=C\c2cc(Cl)ccc2O)nc1
26

Let us move to another entry and its growth.
Look up growth for this compound: CC1(C)CC[C@]2(CO)CC[C@]3(C)C(=CC[C@@H]4[C@@]5(C)CCNCC(C)(C)[C@@H]5CC[C@]43C)[C@@H]2C1
5.97
